Origin of measurements: patent US20210130436A1

The entries below come with measured MFI at 33.3 nM values attached.
Target: T1, human CD28 (human, UniProt P10747 19-220)
T1 construct: Endogenous CD28 on Jurkat/IL2 reporter cells
Experiment: flow cytometry on Jurkat cells (CD28)
Record the value in MFI, omitting the unit from your answer.

In: Provide one value: measured MFI at 33.3 nM of CD80 E35D/M47V/N48K/V68M/K89N IgV-Fc, EAAAK linker (Fc fusion, not shown: a dimerising Fc or GST) VIHVTKEVKEVATLSCGHNVSVEELAQTRIYWQKDKKMVLTMMSGDVKIWPEYKNRTIFDITNNLSIMILALRPSDEGTYECVVLKYENDAFKREHLAEVTLSVKADEAAAK
Out: 2630

In: Look up MFI at 33.3 nM of CD80 E35D/D46V/M47L/V68M/L85Q/E88D IgV-Fc, GS(G4S)3 linker (Fc fusion, not shown: a dimerising Fc or GST) VIHVTKEVKEVATLSCGHNVSVEELAQTRIYWQKDKKMVLTMMSGVLNIWPEYKNRTIFDITNNLSIMILALRPSDEGTYECVVQKYDKDAFKREHLAEVTLSVKADGSGGGGSGGGGSGGGGS and report it.
Out: 267

Further cases:
In: Determine its reported MFI at 33.3 nM: CD80 E35D/D46V/M47L/V68M/L85Q/E88D IgV-Fc, (EAAAK)3 linker (Fc fusion, not shown: a dimerising Fc or GST) VIHVTKEVKEVATLSCGHNVSVEELAQTRIYWQKDKKMVLTMMSGVLNIWPEYKNRTIFDITNNLSIMILALRPSDEGTYECVVQKYDKDAFKREHLAEVTLSVKADEAAAKEAAAKEAAAK
Out: 197
